test system: Bcap-37; experiment: MTT growth inhibition, Bcap-37; assay type: cell-based; conditions: Homo sapiens, Bcap37, Mammary Carcinoma, MTT assay

>  <molecule>
CN1C(=O)[C@]23SS[C@]1(C)C(=O)N2C1Nc2ccccc2[C@@]1(C12c4ccccc4NC1N1C(=O)[C@@]4(C)SS[C@]1(C(=O)N4C)[C@H]2O)[C@@H]3O (stereo partly shown)

>  <unit.tag>
µM

>  <IC50>
0.119

$$$$

---

tested on: SPC-A1; test: MTT growth inhibition, SPC-A1; type: cell-based; settings: SPCA1, Lung Carcinoma, MTT assay
pIC50: −log10 of the molar value.

>  <compound>
CN1C(=O)[C@]23SS[C@]1(C)C(=O)N2C1Nc2ccccc2[C@@]1(C12c4ccccc4NC1N1C(=O)[C@@]4(C)SS[C@]1(C(=O)N4C)[C@H]2O)[C@@H]3O (stereo partly shown) [Verticillin A]

>  <pIC50>
7.52

$$$$
